// provenance: patent US11236084B2

Entries and their melting point values follow.
Quick note: give the figure in °C, leave out the unit.

molecule="Cc1ccc(Cl)cc1Nc1nccc(-c2cnc3c(c2)C(C)(CO)CN3)n1 (stereo not drawn)" measurement_label="melting point" reported=221
molecule="COCCOc1ccc(Cl)cc1Nc1nccc(-c2cnc3c(c2)C(C)(CO)CN3)n1 (stereo not drawn)" measurement_label="melting point" reported=208
molecule=COc1ccc(Cl)cc1Nc1nccc(-c2cnc3c(c2)C(C)(C)CN3)n1 measurement_label="melting point" reported=210

--- query ---
For the molecule shown here, COc1ccc(Cl)cc1Nc1nccc(-c2cnc3c(c2)C(C)(CO)CN3)n1 (stereo not drawn) , give the reported melting point. 236
